target: Left-right determination factor 2 (Homo sapiens); assay: LEFTY2 binders on small-molecule microarrays, primary screen, biochemical, small-molecule microarray, 635 nm fluorescence scan (AID 1110); details: LEFTY2 binding, higher = more signal
OBSERVED_PROPERTY: composite z-score
Answers are plain numbers.

> print(dat)
                                   compound                             system.tested  numeric.result
1  O=C1OC[C@@H](c2ccccc2)n2cc(/C=C/c3ccccc3)cc21  Left-right determination factor 2 (Homo sapiens)          -0.623
2  O=C1c2ccccc2[C@](Cc2ccccc2I)(C(=O)NCCN2CCOCC2)[C@H](c2ccc(CO)cc2)N1Cc1ccccc1C(F)(F)F  Left-right determination factor 2 (Homo sapiens)          -0.325

Record composite z-score for all entries; do not skip any.
1. CC(CO)N1C(=O)[C@@H]2[C@H]3C(=O)OCC=C[C@H]3OC23C=CCN(c2ccc4ccccc4c2)C(=O)[C@@H]13 (some centres undefined)
2. [N-]=[N+]=NCc1ccccc1C[C@]1(C(=O)N2CCCCC2)COC(c2ccc(OCCCO)cc2)=N1

1. -2.64
2. 0.227

---

test system: Fibrinogen (Alexa647-labelled); assay: fibrinogen binders on compound microarrays, profiling panel, artefact control for SMM control-protein annotation, biochemical, small-molecule microarray, 635/667 nm fluorescence (AID 1131); settings: fibrinogen-A647 binding fluorescence, higher = more signal;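 further: z-score merges 667 nm fluorescence with per-spot signal-to-noise over triplicate slides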
OBSERVED_PROPERTY: composite z-score

Record composite z-score for all entries; do not skip any.
1. CCCNC(=O)[C@@]1(Sc2ccc(C)cc2)CC(=O)N(Cc2cc(C(F)(F)F)cc(C(F)(F)F)c2)[C@@H]1c1ccc(CO)cc1
2. COC(=O)[C@@]1(Cc2ccccc2)[C@H]2c3cc(C(=O)N(C)C)n(CCF)c3C[C@H]2CN1C(=O)c1ccccc1
3. COC(=O)c1ccc(OC)c(/C=C\CC(OC(=O)c2ccncc2)c2ccccc2)c1 (centres undefined)
4. COc1cc(CO)cc(I)c1O[C@H]1C=C(C(=O)NCCO)C[C@@H](N(CCN2CCOCC2)C(=O)C2CCCO2)[C@@H]1O (some centres undefined)

[-0.452, 0.339, -0.237, -0.0246]

---

assay: modulators of HCV replicon luciferase signal, primary screen, HCV replication inhibitor project, Huh7 cells, luciferase reporter (AID 1109); conditions: 48 h, higher = more signal;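 further: huh7 hepatoma cells harbouring a luciferase neomycin HCV replicon reporter; luciferase luminescence as measure of HCV replicon replication; test concentration not given here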
Criterion: z-score meeting or surpassing -1. Met: Fulfilled. Not met: Not fulfilled.

STRUCTURE_NOTATION	LABEL
CC(C)N1C(=O)[C@@]2(Cc3ccccc31)c1ccccc1C(=O)N(Cc1ccccc1)[C@H]2c1ccc(CO)cc1	Fulfilled

Given O=C1C[C@@](C(=O)NCC(F)(F)F)(c2ccc([N+](=O)[O-])cc2)[C@@H](c2ccc(CO)cc2I)N1CC12CC3CC(CC(C3)C1)C2 , state whether its z-score is at least -1.
Not fulfilled

Given COCCCNC(=O)[C@@]1(Cc2ccccc2I)c2ccccc2C(=O)N(Cc2ccccc2OC)[C@H]1c1ccc(CO)cc1 , state whether its z-score is at least -1.
Not fulfilled

Given COCCOC(=O)N1C(=O)[C@@]2(c3cc(C#CCNC(N)=O)ccc31)[C@H](c1ccccc1OCCO)N1[C@H](c3ccccc3)[C@H](c3ccccc3)OC(=O)[C@H]1[C@@H]2C(=O)N1CCCCCCC1 , state whether its z-score is at least -1.
Not fulfilled

Given COCCOC(=O)N1C(=O)[C@@]2(c3cc(C#CCNC(N)=O)ccc31)[C@H](C(N)=O)[C@H]1C(=O)O[C@H](c3ccccc3)[C@H](c3ccccc3)N1[C@@H]2c1ccc(O)cc1 , state whether its z-score is at least -1.
Fulfilled

Given COCCOC(=O)N1C(=O)[C@@]2(c3cc(C#CCNC(N)=O)ccc31)[C@H](C(=O)Nc1nc3ccccc3s1)[C@H]1C(=O)O[C@H](c3ccccc3)[C@H](c3ccccc3)N1[C@@H]2c1ccc(O)cc1 , state whether its z-score is at least -1.
Not fulfilled

---

target: Concanavalin-A (Canavalia ensiformis) (UniProt P02866); test: ConA small-molecule binders, primary screen, artefact control for SMM control protein annotation, biochemical, small-molecule microarray, Alexa647 label, 635 nm (AID 1127); conditions: ConA-A647 binding fluorescence, higher = more signal;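 further: z combines 667 nm emission intensity with signal-to-noise across three replicate slides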
Sequence (P02866 whole entry, looked up): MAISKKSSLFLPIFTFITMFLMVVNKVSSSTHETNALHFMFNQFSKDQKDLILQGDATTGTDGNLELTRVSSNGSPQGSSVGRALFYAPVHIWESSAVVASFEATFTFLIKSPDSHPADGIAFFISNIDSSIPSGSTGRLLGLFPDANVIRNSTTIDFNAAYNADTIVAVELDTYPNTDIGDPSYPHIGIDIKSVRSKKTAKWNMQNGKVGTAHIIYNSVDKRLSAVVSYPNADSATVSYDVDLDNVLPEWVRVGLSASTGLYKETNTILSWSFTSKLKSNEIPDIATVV
Criterion: composite z-score meeting or surpassing 0.9. Met: yes. Not met: no.

// known answers, use as guide
COMPOUND	LABEL
[N-]=[N+]=NCc1ccccc1C[C@@]1(C(=O)NCCN2CCOCC2)N=C(c2ccc(OCCCO)cc2)O[C@@H]1c1ccccc1	yes
C=CCNC(=O)[C@H]1[C@@H]2C(=O)O[C@@H](c3ccccc3)[C@@H](c3ccccc3)N2[C@@H](c2ccc(O)cc2)[C@]12C(=O)Nc1ccccc12	no
C[C@H]1C2[C@H](Cc3ccccc3)NC(=O)[C@]23C(=O)N[C@@H](Cc2ccccc2)C(=O)N2CCC[C@H]2C(=O)NC/C=C/CC/C=C/C3[C@@H]2O[C@]12C (some centres undefined)	no
COCCOC(=O)N1C(=O)[C@@]2(c3cc(C#CCC(C(=O)OC)C(=O)OC)ccc31)[C@H](C(N)=O)[C@H]1C(=O)O[C@H](c3ccccc3)[C@H](c3ccccc3)N1[C@@H]2c1ccccc1OCCO	yes

Given COc1c(C)cc(-c2nc(-c3ccccc3)c3c(c2C)CO[Si]3(C(C)C)C(C)C)cc1C , state whether its composite z-score is at least 0.9.
no

Given CCCC1(C(=O)OC)C=C2C(=C(C(C)C)C(=O)C2C)CN1 (centres undefined) , state whether its composite z-score is at least 0.9.
no

Given CC1C2C(CCCO)=CC(C3C(=O)N(C(N)=O)C(=O)C23)N1Cc1cccc(OC(F)(F)F)c1 (centres undefined) , state whether its composite z-score is at least 0.9.
no

Given O=C1C2C=CC(C(O)C(c3ccccc3)c3ccccc3)N(Nc3ccccc3F)C2C(=O)N1c1ccccc1 (centres undefined) , state whether its composite z-score is at least 0.9.
no

Given CC[C@@H]1C=C(C(=O)O)[C@H](c2cccc(Cl)c2)N1S(=O)(=O)c1ccc(C)cc1 , state whether its composite z-score is at least 0.9.
no

---

assay: MM1S cell viability effects, profiling panel, calcein-AM fluorescence, 48 h, basal (AID 1165); conditions: higher = more signal;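 further: viability of MM1S multiple myeloma cells under basal unstimulated conditions; test concentration not given here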
Criterion: z-score meeting or surpassing -1. Met: Yes. Not met: No.

MOLECULE	LABEL
CC(C)c1ccc(NN2C(C(O)C3=C[C@H]4C[C@@H](C3)C4(C)C)C=CC3C(=O)N(c4ccccc4)C(=O)C32)cc1 (stereo partly drawn)	No

Given O=C1C2C=CC(C(O)C(c3ccccc3)c3ccccc3)N(Nc3ccccc3F)C2C(=O)N1c1ccccc1 (stereo not drawn) , state whether its z-score is at least -1.
No

Given CCCCCCc1nc(-c2ccc(OC)nc2)c(C)c2c1[Si](C(C)C)(C(C)C)OC2 , state whether its z-score is at least -1.
No

Given CCOC(=O)C[C@H]1[C@H](OC(=O)c2ccc(-c3ccccc3)cc2)[C@@H](NC(=O)c2ccc(-c3ccccc3)cc2)c2cc(OCCCO)ccc2N1C(=O)c1ccccc1 , state whether its z-score is at least -1.
Yes

Given CC1CC/C=C\[C@H]2OC34C=CCN(C(C)C)C(=O)[C@H]3N(C(C)CO)C(=O)[C@@H]4C2C(=O)O1 (stereo partly drawn) , state whether its z-score is at least -1.
Yes

Given CC[C@@H](O[Si](C#C[Si](C(C)C)(C(C)C)C(C)C)(C(C)C)C(C)C)c1cn(Cc2cccc(Cl)c2)nn1 , state whether its z-score is at least -1.
Yes

Given O=C1O[C@@H](c2ccccc2)[C@@H](c2ccccc2)N2[C@@H](c3ccc(OCCO)cc3)[C@]3(C(=O)Nc4ccc(C#CC5=CCCCC5)cc43)[C@@H](C(=O)Nc3nc4ccccc4s3)[C@H]12 , state whether its z-score is at least -1.
No

Given COC(=O)[C@@]1(Cc2ccc(F)cc2)[C@H]2c3cc(C(=O)N(C)C)n(Cc4ccc(C(F)(F)F)nc4)c3C[C@H]2CN1C(=O)c1ccccc1 , state whether its z-score is at least -1.
Yes

Given COC(=O)[C@@]1(Cc2ccc(F)cc2)[C@H]2c3cc(C(=O)N(C)C)n(Cc4cccc5ccccc45)c3C[C@H]2CN1C(=O)c1ccccc1 , state whether its z-score is at least -1.
Yes

Given COc1ccc(CCNC(=O)[C@@]2(c3ccc([N+](=O)[O-])cc3)CC(=O)N(C3CCCCC3)[C@@H]2c2ccc(CO)cc2I)cc1 , state whether its z-score is at least -1.
No

---

Task for the reader: assign each of the following compounds its reported composite z-score.
test system: glycogen synthase kinase-3 (GSK3A per assay name; protocol says GSK3B); assay: GSK3 binders on small-molecule microarrays, primary screen, biochemical, small-molecule microarray, 635 nm fluorescence, GSK3A (AID 1103); conditions: small-molecule microarray binding, fluorescence 635 nm; higher = more signal; further: the record names both GSK3A and GSK3B

Consider the following illustrative entries.
COMPOUND	OBSERVED_PROPERTY	RESULT
COC(=O)[C@@]1(Cc2ccc(F)cc2)[C@H]2c3cc(C(=O)N4CCCC4)n(CCc4c[nH]c5cc(F)ccc45)c3C[C@H]2CN1C(=O)c1ccccc1	composite z-score	1.32
C=C(/C=C\CNS(=O)(=O)c1ccc(C)cc1)[C@H](O)[C@H]1CCCN1S(=O)(=O)c1ccccc1[N+](=O)[O-]	composite z-score	0.215
COc1ccc([Si](C)(C)[C@H]2[C@H](CCO)O[C@@]3(C(=O)N(Cc4ccccc4)c4ccc(NC(=O)[C@H](C)O)cc43)[C@@H]2C)cc1	composite z-score	0.0488
COCCOC(=O)N1C(=O)[C@@]2(c3cc(C#CCC(C(=O)OC)C(=O)OC)ccc31)[C@H](c1ccc(O)cc1)N1[C@H](c3ccccc3)[C@H](c3ccccc3)OC(=O)[C@H]1[C@@H]2C(=O)N1CCc2cc(OC)c(OC)cc2C1	composite z-score	1.08
C=CCN1C(=O)[C@@]2(O[C@@H](CCO)[C@H]([Si](C)(C)c3ccc(OC)cc3)[C@H]2C)c2cc(N3CCCCC3=O)ccc21	composite z-score	0.399
COCCOC(=O)N1C(=O)[C@@]2(c3ccccc31)[C@H](C(=O)Nc1nc3ccccc3s1)[C@H]1C(=O)O[C@H](c3ccccc3)[C@H](c3ccccc3)N1[C@@H]2c1ccccc1OCCO	composite z-score	0.783
CN1C(=O)C2C=CC(C(O)COCc3ccccc3)N(Nc3ccc([N+](=O)[O-])cc3[N+](=O)[O-])C2C1=O (stereo not drawn)	composite z-score	-0.443
CCOC(=O)C1=CCC(c2ccncc2)N(S(=O)(=O)c2ccc(C)cc2)C1 (stereo not drawn)	composite z-score	1.29
C=CC[C@]1(C(=O)NCCN2CCOCC2)N=C(c2ccc(OCCCO)cc2)O[C@H]1c1ccccc1	composite z-score	0.866
CCCCC(=C=CC[C@H](O)c1ccccc1OCCO)CCO	composite z-score	-0.123

Record composite z-score for all entries; do not skip any.
1. CCCCC(=C=CC[C@@H](O)c1ccccc1OCCO)C[C@@H](O)c1ccccn1
2. CO[C@H]1O[C@H](CO)[C@@H](OC(=O)CCc2ccccc2)[C@@H]2OC(=O)[C@@H](Cc3ccc4ccccc4c3)C/C=C/C[C@H](Cc3ccc4ccccc4c3)C(=O)O[C@@H]12
3. C=CCNC(=O)[C@@H]1[C@H]2C(=O)O[C@H](c3ccccc3)[C@H](c3ccccc3)N2[C@H](c2ccc(O)cc2)[C@@]12C(=O)Nc1ccc(C#CC3=CCCCC3)cc12
4. COCCCNC(=O)[C@@]1(CCC(=O)OC(C)(C)C)N=C(c2ccc(OCCCO)cc2)O[C@H]1c1ccccc1
5. C#CCN(C(=O)OC(C)(C)C)[C@H](CO)c1ccccc1

-0.644
-0.346
0.887
-0.505
0.419

Record composite z-score for all entries; do not skip any.
1. COCCCNC(=O)[C@@]1(Cc2ccccc2I)c2ccccc2C(=O)N(C2CCCCC2)[C@H]1c1ccc(CO)cc1
2. N#Cc1ccc(NN2C(C(O)c3ccc(B(O)O)cc3)C=CC3CN(c4ccccc4)C(=O)C32)cc1 (stereo not drawn)
3. CC(C)c1ccc(NN2C(C(O)C3=C[C@H]4C[C@@H](C3)C4(C)C)C=CC3C(=O)N(c4ccccc4)C(=O)C32)cc1 (stereo partly drawn)

[0.681, -0.824, 0.577]
